Values from ChEMBL document CHEMBL3525917

# Assay Text: Cmax in cynomolgus monkey at 3 mg/kg, po
# Type: ADME, organism-based, Macaca fascicularis
# Parameters: dose 3 mg/kg, route oral
# Setup Conditions: in vivo
Quantity: Cmax (ng/mL)
Give bare numbers, in ng/mL.

Form field: reported Cmax of Cc1nn(C[C@H](F)CN2C3CCC2CC(OCc2cccc(F)c2)C3)c(=O)n1C (stereo partly specified)
40

----------
# Assay Text: Cmax in MDR1A/1B knock-out mouse at 3 mg/kg, po
# Assay type: ADME, organism-based
# Design: dose 3 mg/kg, route oral
# Setup Conditions: in vivo
Quantity: Cmax

Quick check: Cmax of Cc1nn(C[C@H](F)CN2C3CCC2CC(OCc2cccc(F)c2)C3)c(=O)n1C (stereo partly specified) ?
0.1 µg/mL

----------
# Assay Text: AUC in cynomolgus monkey at 1 mg/kg, iv
# Assay type: ADME, organism-based, Macaca fascicularis
# Set-up: dose 1 mg/kg, route intravenous
# Setup Conditions: plasma
Quantity: AUC (ng·h/mL)
Answers are plain numbers, in ng·h/mL.

Entry under review: Cc1nn(C[C@H](F)CN2C3CCC2CC(OCc2cccc(F)c2)C3)c(=O)n1C (stereo partly specified) . Reported AUC?
700

----------
# Assay Text: Tmax in wild-type mouse at 3 mg/kg, po
# Type: ADME, organism-based
# Parameters: dose 3 mg/kg, route oral
# Setup Conditions: in vivo
Quantity: Tmax (min)
Give bare numbers, in min.

// lookup Tmax for Cc1nn(C[C@H](F)CN2C3CCC2CC(OCc2cccc(F)c2)C3)c(=O)n1C (stereo partly specified)
30

----------
# Assay Text: Cmax in double-cannulated Sprague-Dawley rat jugular vein at 10 mg/kg, po
# Assay type: ADME, organism-based
# Design: dose 10 mg/kg, route oral
Quantity: Cmax

Given the entry Cc1nn(C[C@H](F)CN2C3CCC2CC(OCc2cccc(F)c2)C3)c(=O)n1C (stereo partly specified) , report its measured Cmax.
1040 ng/mL

----------
# Assay Text: AUC in Sprague-Dawley rat at 10 mg/kg, po
# Format: ADME, organism-based
# Set-up: dose 10 mg/kg, route oral
# Setup Conditions: plasma
Quantity: AUC (ng·h/mL)
Give bare numbers, in ng·h/mL.

Record request: AUC value, item Cc1nn(C[C@H](F)CN2C3CCC2CC(OCc2cccc(F)c2)C3)c(=O)n1C (stereo partly specified)
170

----------
# Assay Text: Tmax in cynomolgus monkey at 10 mg/kg, po in presence of ketoconazole
# Type: ADME, organism-based, Macaca fascicularis
# Set-up: dose 10 mg/kg, route oral
# Setup Conditions: in vivo
Quantity: Tmax (h)
Numbers only, in h.

Quick one: Tmax for Cc1nn(C[C@H](F)CN2C3CCC2CC(OCc2cccc(F)c2)C3)c(=O)n1C (stereo partly specified) ?
2

----------
# Assay Text: Volume of distribution at steady state in beagle dog at 1 mg/kg, iv
# Format: ADME, organism-based, Canis lupus familiaris
# Design: dose 1 mg/kg, route intravenous
# Setup Conditions: in vivo, read-out: Vdss
Quantity: Vd

What does the data say about its Vd? Entry: Cc1nn(C[C@H](F)CN2C3CCC2CC(OCc2cccc(F)c2)C3)c(=O)n1C (stereo partly specified)
1.84 L/kg

----------
# Assay Text: Oral bioavailability in beagle dog at 3 mg/kg
# Format: ADME, organism-based, Canis lupus familiaris
# Setup Conditions: in vivo
Quantity: bioavailability (%)
Numbers only, in %.

// bioavailability lookup, key: Cc1nn(C[C@H](F)CN2C3CCC2CC(OCc2cccc(F)c2)C3)c(=O)n1C (stereo partly specified)
1.2
